Cited source for all entries: PubChem BioAssay (EPA / NIEHS)

Read-out: Human Leukocyte Antigen - DR isotype (HLADR), HLA-DRA (gene 3122)
experimentSummary: BSK_3C_HLADR: BioMAP Diversity Plus: 3C Assay for Human Leukocyte Antigen - DR isotype (HLADR) Biomarker Activity (AID 2283019)
settings: primary human endothelial cells (HUVEC); actives raise or lower the signal
The source made the active and inactive calls. How the source made its calls: active means hit-call score of the fitted dose curve at least 0.9, where 1 is the maximum; inactive means score below 0.9.
endpoint: AC50

ClC1=C(Cl)[C@]2(Cl)[C@@H]3[C@@H]4C[C@@H]([C@H]5O[C@@H]45)[C@@H]3[C@@]1(Cl)C2(Cl)Cl
20 µM (active)
CCC(=O)O[C@H]1CC[C@H]2[C@@H]3CCC4=CC(=O)CC[C@]4(C)[C@H]3CC[C@]12C
33.9 µM (active)
CO/C=C(/C(=O)OC)c1ccccc1COc1cccc(C(F)(F)F)n1
9.84 µM (active)
O=S(=O)(O)C(F)(F)C(F)(F)C(F)(F)C(F)(F)C(F)(F)C(F)(F)F
inactive

Consider now this further compound.
The value of AC50 measured for the compound Cc1cccc([N+](=O)[O-])c1 turned out to be inactive

----------
experimentSummary: BSK_SAg_Proliferation: Cell Proliferation Assessment in the BioMAP Diversity Plus: SAg Assay (AID 2283095);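 further: relative cell number as total protein by SRB absorbance in sub-confluent culture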
settings: primary human HUVEC with PBMC
Protocol: BSK_SAg is a cell-based, multiplexed-readout assay that uses umbilical vein endothelium and peripheral blood mononuclear cells, a human vascular primary cell co-culture, with measurements taken at 24 hours after chemical dosing in a 96-well plate.BSK_SAg_Proliferation is an assay component in the BSK_SAg assay. It measures protein content, a form of viability reporter, as detected with absorbance signals by Sulforhodamine staining technology. […]
The source made the active and inactive calls. Rule for the calls: active = hit-call score of the fitted dose curve at least 0.9, where 1 is the maximum; inactive = score below 0.9.
Allowed answers: 1.0 for active, 0.0 for inactive

c1ccc(-c2ccccc2)cc1
0.0
CCCCCCCCCC[N+](C)(C)CCCCCCCCCC
1.0
COS(=O)(=O)OC
0.0
CCOCCOC(C)=O
0.0
CC(C)(O)C(=O)Nc1ccc([N+](=O)[O-])c(C(F)(F)F)c1
0.0

query: Test call for this compound, please: CC1=C2C[C@H]3[C@@H](CC=C4C[C@@H](O)CC[C@@]43C)[C@@H]2CC[C@]12O[C@@H]1C[C@H](C)CN[C@H]1[C@H]2C
result: 0.0

query: For ClC1=C(Cl)[C@]2(Cl)[C@@H]3[C@H]4C[C@H]([C@@H]5O[C@H]45)[C@@H]3[C@@]1(Cl)C2(Cl)Cl , what call appears in the results of this test?
result: 1.0

----------
Read-out: Monocyte Chemoattractant Protein-1 (MCP1), CCL2 (gene 6347)
experimentSummary: BSK_SAg_MCP1: BioMAP Diversity Plus: SAg Assay for Monocyte Chemoattractant Protein-1 (MCP1) Biomarker Activity (AID 2283090)
settings: primary human HUVEC with PBMC; actives raise or lower the signal
Calls of active or inactive are those of the source. How the source made its calls: active means hit-call score of the fitted dose curve at least 0.9, where 1 is the maximum; inactive means score below 0.9.
endpoint: AC50

Take a look at these entries with their results.
C1CC2OC2CC1C1CO1 (stereo not drawn)
inactive
CCOC(=O)C(O)(c1ccc(Cl)cc1)c1ccc(Cl)cc1
35.2 µM (active)
CN(C)CCO
inactive
Cc1ccccc1O
inactive

# AC50 (compound: Cc1ccc(O)c(C)c1 ) is inactive

Oc1ccc(C(c2ccc(O)cc2)(C(F)(F)F)C(F)(F)F)cc1 yielded AC50 of 26.5 µM (active)

Lab note: measured AC50 of CC(c1ccc(O)cc1)(c1ccc(O)cc1)c1ccc(O)cc1 was 25.9 µM (active)

O=C(O)C(F)(F)C(F)(F)C(F)(F)C(F)(F)C(F)(F)F has a reported AC50 of inactive

AC50 in this record for CCCCCCOC(=O)c1ccccc1C(=O)OCCCCCC : inactive
